The origin of these recorded values is ChEMBL document CHEMBL4152278.

- measurement notes: Half life in rat plasma by HPLC method
- Assay type: ADME, cell-free
property name: half-life

- structure smiles: "COc1ccc2cc([C@H](C)C(=O)/N=C(\\N)N[C@H]3C=C(C(=O)O)O[C@@H]([C@H](O)[C@H](O)CO)[C@@H]3NC(C)=O)ccc2c1"
  half-life: "67.7 h"

Lookup: Please give measured half-life of the following entry: `CCCCCCCC(=O)/N=C(\N)N[C@H]1C=C(C(=O)O)O[C@@H]([C@H](O)[C@H](O)CO)[C@@H]1NC(C)=O`
Found: 29.5 h

###

Field: remaining at 96 h. Provide a value for each of the compounds that follow.
- measurement notes: Metabolic stability in […] assessed as parent compound remaining after 96 hrs by HPLC method
- Type: ADME, cell-free, Oryctolagus cuniculus
- experimental parameters: rabbit, plasma; read-out: Stability
One number for each entry, in %.

- structure smiles: "CCC(CC)O[C@@H]1C=C(C(=O)O)C[C@H](N/C(N)=N/C(=O)[C@@H](C)c2ccc3cc(OC)ccc3c2)[C@H]1NC(C)=O"
  property name: "remaining at 96 h"
  recorded value: 76

In the following, a different compound is considered.
Lookup: Please give measured remaining at 96 h of the following entry: `CCCCCCCC(=O)/N=C(\N)N[C@H]1CC(C(=O)O)=C[C@@H](OC(CC)CC)[C@@H]1NC(C)=O`
Found: 55
